# experimental.protocol: growth inhibitors of tim10-1 mutant yeast, primary screen, luminescence, uHTS (AID 463190);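 note: mutant grown at 25 °C; 0% = DMSO wells with yeast and 100% = wells holding no yeast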
# recorded.conditions: S. cerevisiae tim10-1 ts strain growth, BacTiter-Glo, 24 h; at 20 µM; stronger effect = higher value
The whole screen tested about 330,000 compounds, of which about 7,300 (2.2%) were called active. The sample holds actives, similar compounds and a random draw of the others, so the mix is not that of the screen.
Consider the following compounds and their measured inhibition readings.
Report as a plain number; the unit % is understood.

# compound, measurement.unit, inhibition
records = [
    ("O=C(CCNC(=O)c1ccc(Br)cc1)NCCCc1ccccc1", "%", 7.38),
    ("Fc1ccccc1OCCSc1nc2ccccc2o1", "%", 27.5),
    ("Cc1cccc(OCC(=O)Nc2ccc(NC(=O)c3ccco3)c(C)c2)c1", "%", 1.89),
    ("Oc1c(CN2CCCC2)cc(COCc2ccccc2)c2cccnc12", "%", 14.6),
    ("COc1cc2sc(C)nc2cc1C", "%", 13.3),
    ("CCN1C(=O)[C@@H]2[C@@H](c3ccc(-c4cccc(Cl)c4)cc3)N3CCC[C@@]3(C(=O)OC)[C@@H]2C1=O", "%", 30.1),
]

Looking up CCc1nnc(NC(=O)CSc2nnc(-c3ccncc3)n2Cc2ccccc2)s1 , I see its inhibition listed as 10.1

Looking up COc1ccc(NC(C)=O)cc1NC(=O)CN1CCN(C2c3ccccc3-c3ccccc32)CC1 , I see its inhibition listed as 41.6

Looking up CCn1c(=O)c([N+](=O)[O-])c(NCc2ccc3c(c2)OCO3)c2ccccc21 , I see its inhibition listed as 2.3

Looking up Clc1ccc(C2CC(c3cccs3)n3ncnc3N2)cc1Cl (stereo not drawn) , I see its inhibition listed as 44.6

Looking up Cc1cc(C)cc(OCC(=O)NNC(=O)CCN2C(=O)c3ccccc3C2=O)c1 , I see its inhibition listed as 9.29

Looking up Cc1nc(NC(=O)c2cccc(Cl)c2)sc1-c1csc(Nc2cccc(Cl)c2)n1 , I see its inhibition listed as -8.28

Looking up O=C(c1cccc(Cl)c1)N1CCN(Cc2ccccc2)CC1 , I see its inhibition listed as -7.29

Looking up COc1ccc(C2CC(c3ccc(C)cc3)Nc3ncnn32)cc1 (stereo not drawn) , I see its inhibition listed as 31.2

Looking up CCc1ccc(S(=O)(=O)N/N=C\c2ccc([N+](=O)[O-])o2)cc1 , I see its inhibition listed as 30.4

Looking up S=C(NCCCc1ccccc1)Nc1ccc(Br)cc1 , I see its inhibition listed as 64.1

Looking up Cc1nc(NC(=O)CN(C)S(=O)(=O)c2ccc(Cl)cc2)sc1C , I see its inhibition listed as 4.21

Looking up O=C(NN1CCOCC1)c1cccc(F)c1 , I see its inhibition listed as -9.56

Looking up CCc1nc2ccc(C(=O)N3CCN(c4cccc(Cl)c4)CC3)cc2nc1CC , I see its inhibition listed as 52.2

Looking up Cn1nc(C(C)(C)C)c([N+](=O)[O-])c1C(N)=O , I see its inhibition listed as -18.4

Looking up CCCCCCC(=O)Nc1nc(C)c(-c2csc(Nc3cc(Cl)ccc3OC)n2)s1 , I see its inhibition listed as 3.74

Looking up Cc1ccc(C(=O)COc2cccc(NC(=O)c3ccco3)c2)cc1 , I see its inhibition listed as 40.3

Looking up Cc1cccnc1NC(=O)c1cccc(S(=O)(=O)N2CCN(c3ccc(F)cc3)CC2)c1 , I see its inhibition listed as 23.8

---

# experimental.protocol: growth inhibitors of tim10-1 mutant yeast, primary screen, luminescence, uHTS (AID 463190)
# recorded.conditions: S. cerevisiae tim10-1 ts strain growth, BacTiter-Glo, 24 h; at 20 µM; stronger effect = higher value
Screen size: about 330,000 compounds; about 7,300 (2.2%) were called active. The list comes from a sample in which actives are over-represented; it also holds close analogues and randomly drawn compounds.
parameter: inhibition (%)
Report as a plain number; the unit % is understood.

Here's what some known entries look like.
# molecule, parameter, measurement.unit, test.result
rows = [
    ("O=C(NCc1ccco1)c1cccn2c(=O)c3c4c(sc3nc12)CCCC4", "inhibition", "%", 41.6),
    ("COc1ccc(NS(=O)(=O)c2ccc3oc(SCC(N)=O)nc3c2)cc1", "inhibition", "%", 6.21),
    ("CCC(=O)c1cn(CCOc2ccccc2OC)c2ccccc12", "inhibition", "%", 4.25),
    ("COc1ccc(C(=O)NC(=S)N2CCNC(=O)C2CC(=O)OC(C)C)cc1 (stereo unspecified)", "inhibition", "%", -10.3),
    ("N#Cc1ccc(CSc2nnc(-c3ccccn3)n2-c2ccc(Cl)cc2)cc1", "inhibition", "%", 40),
    ("N#Cc1ccc(CSc2nnc3ccccn23)cc1", "inhibition", "%", 21.5),
    ("N#Cc1ccc(CSc2ncccn2)cc1", "inhibition", "%", -2.68),
    ("CS(=O)(=O)N(CC(=O)Nc1ccc(Cl)c(Cl)c1)C1CCCCC1", "inhibition", "%", 35.1),
]

Looking up CCCN=C1N(C)C[C@@H]2[C@@H]3C(=O)N(Cc4ccccc4)C(=O)[C@@H]3[C@](C)(C(=O)OC)N12 , I see its inhibition listed as 0.857

Looking up O=C(CCCN1C(=O)CCC1=O)Nc1ccc(Cl)c(C(F)(F)F)c1 , I see its inhibition listed as -0.021

Looking up Cc1cccc(Nc2ccccc2C(=O)NCc2ccco2)c1C , I see its inhibition listed as 29.9

---

# experimental.protocol: growth inhibitors of tim10-1 mutant yeast, primary screen, luminescence, uHTS (AID 463190);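 note: mutant grown at 25 °C; 0% = DMSO wells with yeast and 100% = wells holding no yeast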
# recorded.conditions: S. cerevisiae tim10-1 ts strain growth, BacTiter-Glo, 24 h; at 20 µM; stronger effect = higher value
In all, about 330,000 compounds went through this assay and about 7,300 (2.2%) were called active. Shown is part of a subset that was picked to be rich in actives.
parameter: inhibition

# compound, test.result
rows = [
    ("N/C(=N\\OC(=O)CCc1ccccc1)c1ccc(Cl)cc1", "65.2% (active)"),
    ("N/C(=N\\OC(=O)Cc1ccccc1[N+](=O)[O-])c1ccc(Br)cc1", "57% (active)"),
    ("COc1ccc(/C(N)=N/OC(=O)Cc2ccccc2)cc1", "46.5% (active)"),
    ("CCOC(=O)C(Cc1ccccc1)NC(=O)CCC(=O)c1ccc(OC)cc1 (stereo unspecified)", "23.1% (inactive)"),
]

Looking up COc1ccc(CCC(=O)c2ccc(OC)cc2)cc1 , I see its inhibition listed as 5.98% (inactive)

Looking up Cc1cc2c(c(=O)n1C)C(C(C)C)C(C#N)=C(N)O2 (stereo unspecified) , I see its inhibition listed as -3.2% (inactive)

---

# experimental.protocol: growth inhibitors of tim10-1 mutant yeast, primary screen, luminescence, uHTS (AID 463190);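 note: mutant grown at 25 °C; 0% = DMSO wells with yeast and 100% = wells holding no yeast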
# recorded.conditions: S. cerevisiae tim10-1 ts strain growth, BacTiter-Glo, 24 h; at 20 µM; stronger effect = higher value
In all, about 330,000 compounds went through this assay and about 7,300 (2.2%) were called active. This excerpt belongs to a sample that is enriched for actives.
Everything with inhibition lower than 10% is Condition not met; everything else, including exactly 10%, is Condition met.

# compound, label.class
records = [
    ("O=c1c(-c2ccc3c(c2)OCCO3)c(C(F)(F)F)oc2cc(O)cc(O)c12", "Condition met"),
    ("O=C(O)CC12CC3CC(C1)CC(n1ncc(NCc4ccc(F)cc4)c(Cl)c1=O)(C3)C2", "Condition not met"),
]

Q: Is reported inhibition greater than or equal to 10% here: O=C(Nc1cc(S(=O)(=O)N2CCOCC2)ccc1Cl)c1cc(=O)c2ccccc2o1
Result: Condition met

Q: Is reported inhibition greater than or equal to 10% here: COc1ccc2c(c1)c(C(=O)N/N=C/c1cccs1)c(C)n2C
Result: Condition met

---

# experimental.protocol: growth inhibitors of tim10-1 mutant yeast, primary screen, luminescence, uHTS (AID 463190);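 note: mutant grown at 25 °C; 0% = DMSO wells with yeast and 100% = wells holding no yeast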
# recorded.conditions: S. cerevisiae tim10-1 ts strain growth, BacTiter-Glo, 24 h; at 20 µM; stronger effect = higher value
Screen size: about 330,000 compounds; about 7,300 (2.2%) were called active. Many of the other results were omitted from the sample, so actives are more common in it than they were.
Consider the following compounds and their measured inhibition readings.
Report as a plain number; the unit % is understood.

Here's what some known entries look like.
# compound, test.result
records = [
    ("CNC(=O)c1csc(Cc2c(Cl)sc3ccc(Cl)cc23)n1", 41.4),
    ("COc1ccc(CN2CC(C(=O)NCCc3ccc(Cl)cc3)CC2=O)cc1 (stereo unspecified)", -2.13),
    ("COCCCN(C(=S)Nc1c(C)cc(C)cc1C)C(C)c1ccncc1 (stereo unspecified)", 21.3),
    ("C/C(=N\\NC(=O)c1cc2c(s1)CCC(C)C2)c1cccnc1 (stereo unspecified)", 39.6),
    ("Cc1noc(C)c1CCC(=O)N1CCCC(CO)(Cc2ccccc2)C1 (stereo unspecified)", -14.1),
]

Looking up Cc1ccccc1CC1(CO)CCCN(Cc2ccc3c(c2)OCCO3)C1 (stereo unspecified) , I see its inhibition listed as 8.67

Looking up CC1CN(C(=O)c2ccc([N+](=O)[O-])s2)CC(C)O1 (stereo unspecified) , I see its inhibition listed as 17.2

Looking up CCn1nccc1C(=O)Nc1ccc(S(=O)(=O)NC23CC4CC(CC(C4)C2)C3)cc1 , I see its inhibition listed as 26.7

Looking up Cc1ccccc1CC1(CO)CCCN(C(=O)c2cc(-c3ccccc3)no2)C1 (stereo unspecified) , I see its inhibition listed as 42.6

Looking up Cc1ccc(-c2csc(-c3cc(C)on3)n2)cc1 , I see its inhibition listed as 11.2

Looking up CC(C)(C)c1cc(C(=O)N/N=C/c2ccc([N+](=O)[O-])s2)n[nH]1 , I see its inhibition listed as 32

The measured values listed here are drawn from PubChem BioAssay AID463190.
